Biological target: ABL1 (Homo sapiens)
Construct: purchased Carna Biosciences
Sequence (P00519 whole entry): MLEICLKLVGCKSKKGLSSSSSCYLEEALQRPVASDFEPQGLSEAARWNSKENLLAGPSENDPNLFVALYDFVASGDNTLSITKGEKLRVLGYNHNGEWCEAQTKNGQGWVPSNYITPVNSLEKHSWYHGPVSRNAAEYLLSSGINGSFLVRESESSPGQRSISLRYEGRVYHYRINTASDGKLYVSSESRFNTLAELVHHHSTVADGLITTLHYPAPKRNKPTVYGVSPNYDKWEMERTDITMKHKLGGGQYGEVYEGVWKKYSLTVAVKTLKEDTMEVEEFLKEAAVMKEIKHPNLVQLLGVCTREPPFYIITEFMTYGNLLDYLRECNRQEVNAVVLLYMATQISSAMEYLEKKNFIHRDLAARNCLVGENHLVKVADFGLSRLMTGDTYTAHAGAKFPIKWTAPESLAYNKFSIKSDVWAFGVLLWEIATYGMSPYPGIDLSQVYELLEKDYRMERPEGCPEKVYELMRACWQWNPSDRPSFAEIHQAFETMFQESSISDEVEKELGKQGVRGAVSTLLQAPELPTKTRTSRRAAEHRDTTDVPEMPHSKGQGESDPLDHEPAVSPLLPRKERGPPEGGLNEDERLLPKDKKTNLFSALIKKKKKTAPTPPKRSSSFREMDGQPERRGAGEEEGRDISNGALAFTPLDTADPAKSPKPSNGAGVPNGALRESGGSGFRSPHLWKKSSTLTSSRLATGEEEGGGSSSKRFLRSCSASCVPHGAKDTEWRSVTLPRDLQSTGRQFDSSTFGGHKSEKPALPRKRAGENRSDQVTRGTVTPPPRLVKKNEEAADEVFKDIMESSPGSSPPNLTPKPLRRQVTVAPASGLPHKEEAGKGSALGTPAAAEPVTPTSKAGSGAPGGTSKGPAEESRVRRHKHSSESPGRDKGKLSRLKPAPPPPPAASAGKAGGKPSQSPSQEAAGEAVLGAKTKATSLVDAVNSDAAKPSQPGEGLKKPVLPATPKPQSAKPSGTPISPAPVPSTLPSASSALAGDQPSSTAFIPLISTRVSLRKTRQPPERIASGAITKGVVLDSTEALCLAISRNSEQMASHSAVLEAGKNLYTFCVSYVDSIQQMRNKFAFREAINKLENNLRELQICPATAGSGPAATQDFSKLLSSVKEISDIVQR
Test: Luminescence-based ABL kinase assay (300 μM ATP), ADP-Glo
Format: biochemical
# note: boundary value 50 nM maps to no (0); IC50 below it maps to yes (1)

{"compound": "Cc1c(-c2cc3cc(NC(=O)C4CC4)ncc3n2C)ccc2[nH]ccc12", "classification": "no (0)"}
{"compound": "COc1ncnc(OC)c1-c1cc2cc(NC(=O)[C@@H]3C[C@@H]3F)ncc2n1C", "classification": "yes (1)"}
{"compound": "COc1cccc(F)c1-c1c(C)c2cnc(NC(=O)[C@@H]3C[C@@H]3F)cc2n1C", "classification": "no (0)"}
{"compound": "COc1ccnc(OC)c1-c1cc2cc(NC(=O)[C@H]3C[C@@H]3CN3CCN(C)CC3)ncc2n1C (single isomer, unassigned)", "classification": "yes (1)"}
{"compound": "COc1ncc(F)c(OC)c1-c1cc2cc(NC(=O)[C@H]3C[C@@H]3CN(C)C)ncc2n1C (single isomer, unassigned)", "classification": "no (0)"}
{"compound": "[2H]C([2H])([2H])n1c(-c2cccnc2OC)cc2cc(NC(=O)[C@@H]3C[C@@H]3F)ncc21", "classification": "yes (1)"}
{"compound": "COc1cc2[nH]ncc2cc1-c1cc2cc(NC(=O)[C@@H]3C[C@@H]3F)ncc2n1C", "classification": "yes (1)"}
{"compound": "[2H]C([2H])([2H])Oc1ncccc1-c1cc2cc(NC(=O)[C@@H]3C[C@@H]3F)ncc2n1C", "classification": "yes (1)"}
{"compound": "COc1ccnc(OC)c1-c1cc2cc(NC(=O)[C@@H]3C[C@@H]3F)ncc2n1C", "classification": "yes (1)"}
{"compound": "COc1cc2scnc2cc1-c1cc2cc(NC(=O)[C@@H]3C[C@@H]3F)ncc2n1C", "classification": "no (0)"}
{"compound": "COc1ncnc(OC)c1-c1cc2cc(NC(=O)[C@@H]3C[C@H]3CN3CCN(C)CC3)ncc2n1C (single isomer, unassigned)", "classification": "yes (1)"}
{"compound": "CCN1CCN(CCNC(=O)Nc2cc3cc(-c4c(OC)ccnc4OC)n(C)c3cn2)CC1", "classification": "no (0)"}
{"compound": "COc1ncnc(NC2CC2)c1-c1cc2cc(NC(=O)[C@@H]3C[C@@H]3F)ncc2n1C", "classification": "no (0)"}
{"compound": "Cc1cc2[nH]cnc2cc1-c1cc2cc(NC(=O)C3CC3)ncc2n1C", "classification": "no (0)"}

The reported numbers originate from patent US12240846B2.
